Value source: patent US20250051443A1

Molecular target: T1, human CD3 (human, UniProt P07766 23-207; P09693 23-182; P04234 22-171)
T1 construct: whole, on cells; also called CD3 on Jurkat T cells; CD3 on primary human T cells
Assay: flow competition on Jurkat, 100 nM unlabeled mAb; competitor AF488-OKT-3 mIgG2b 1.5 nM
Entries and their % residual fluorescence of labeled mAb values follow.
The figure you give is taken to be in %; do not add the unit.

[
  {
    "binder": "F332-12F6 (antibody, mouse IgG2a, V domains shown, also called F332-12F6-2) VH: QVQLQQPGAELGKPGTSVKLSCKASGYTFTSYWIHWVKQRPGQGLEWIGNINPNSGSTNYNEKFKSKATLTVDKSSSTAYMQLSTLTSEDSAVYYCTRDISGQYYFDYWGQGTTLTVSS VL: DIVMSQSPSSLAVSAGEKVTMSCKSSQSLLNSRTRKSYLAWYQQKPGQSPKLLIYWASTRESGVPDRFTGSGSGTDFTLTISSVQAEDLAVYYCIQSYNLRTFGGGTKLEIK",
    "parameter": "% residual fluorescence of labeled mAb",
    "endpoint.value": 82
  },
  {
    "binder": "F332-3E9 (antibody, mouse IgG2a, V domains shown, also called F332-3E9-2; F332-3E9 (12G4)) VH: QVQLQQPGAELGKPGTSVKLSCKASGYTFTSYWIHWLKQRPGQGLEWIGNINPNGGSINCNEKFTTKATLTIDKSSSTAYMQLSTLTSEDFAVYYCTRDTSGQYYFDYWGQGTTLTVSS VL: DIMMSQSPSSLAVSAGEKVTMSCKSSQSLLNSRTRKNYLAWYQQKPGQSPKLLIYWASTRESGVPDRFTGSGSGTDFTLTISSVQAEDLAVYYCTQSYHLRTFGGGTKLEIK",
    "parameter": "% residual fluorescence of labeled mAb",
    "endpoint.value": 79
  }
]

Turning now to a further record.
Given item F282-2D5 (antibody, V domains shown, also called F282-2D5-2) VH: QVQLQQPGTELVKPGASVKLSCKASGYTFTSYWMHWVKQRPGQGLEWIGNINPSNGGTNYNENFKTKATLTVDKSSSTAYMQLSSLTSEDSAVYYCARDRSGQYYFDYWGQGTTLTVSS VL: DIVMSQSPSSLAVSAGEKVTMSCKSSQSLLNSRTRKNYLAWYQQKPGQSPKLLIYWASTRESGVPDRFTGSGSGTDFTLTISSVQAEDLAVYYCIQSYHLRTFGGGTILEIK , the value recorded as its % residual fluorescence of labeled mAb is 78
